IC50: recorded values
test: Antiproliferative activity against human H460 cells after 72 hrs by SRB method; type: functional, cell-based; settings: NCI-H460, 72 h
Answer in µM, number only, no unit symbol.

Observe how each entry below is paired with its result.
{"structure smiles": "CN(CCNCc1cn(-c2ccnc3cc(Cl)ccc23)nn1)CCNc1ccnc2cc(Cl)ccc12", "IC50 [µM]": 16}
{"structure smiles": "CN(CCNCc1cn(-c2ccc(F)cc2)nn1)CCNc1ccnc2cc(Cl)ccc12", "IC50 [µM]": 34}

Moving on to another compound below.
Query: Tell me the measured IC50 of CN(CCNCc1cn(C(C)(C)C)nn1)CCNc1ccnc2cc(Cl)ccc12 , please.
Result: 79

* * *

The entries below come with measured pIC50 values attached.
experiment: Antiproliferative activity against human H460 cells after 72 hrs by SRB method; type: functional, cell-based; conditions: NCI-H460, 72 h
Worth noting: pIC50 values are minus log10 of concentrations stated in mol/L.

In the examples that follow, each entry is paired with its recorded pIC50.
{"compound": "CN(CCNCc1cn(Cc2ccccc2)nn1)CCNc1ccnc2cc(Cl)ccc12", "pIC50": 4.49}
{"compound": "CN(CCNCc1cn(CCn2c(=O)[nH]c3ccccc3c2=O)nn1)CCNc1ccnc2cc(Cl)ccc12", "pIC50": 3.83}

Query: Give the measured pIC50 of Clc1ccc2c(-n3cc(CNCc4cn(-c5ccnc6cc(Cl)ccc56)nn4)nn3)ccnc2c1 .
Result: 4.15

Query: Dear colleague, I am looking for the recorded pIC50 of the following compound: CCN(CC)CCCC(C)Nc1ccnc2cc(Cl)ccc12 (stereo not given)
Result: 4.28

* * *

assay: Antiproliferative activity against human HCC827 cells after 72 hrs by SRB method; assay type: functional, cell-based; conditions: HCC827, 72 h
Recorded pIC50 by entry
Answer as the number alone; pIC50 is minus log10 of concentration in mol/L.

Consider the worked cases shown below.
{"structure smiles": "CN(CCNCc1cn(Cc2nc3cc(Cl)ccc3[nH]2)nn1)CCNc1ccnc2cc(Cl)ccc12", "pIC50": 4.19}
{"structure smiles": "CN(CCNCc1cn(-c2ccccc2Cl)nn1)CCNc1ccnc2cc(Cl)ccc12", "pIC50": 4.92}

Query: If you can, please state the reported pIC50 value of CN(CCNCc1cn(Cc2nc3ccccc3[nH]2)nn1)CCNc1ccnc2cc(Cl)ccc12 .
Result: 3.79

Query: Fill blank: measured pIC50 of the compound CN(CCNCc1cn(Cc2ccc(Cl)cc2)nn1)CCNc1ccnc2cc(Cl)ccc12 is ____.
Result: 5.12

Query: Requested read-out: pIC50. Entry: CN(CCNCc1cn(-c2ccc(Br)cc2)nn1)CCNc1ccnc2cc(Cl)ccc12
Result: 4.96

Query: For CN(CCNCc1cn(Cc2ccc(Br)cc2)nn1)CCNc1ccnc2cc(Cl)ccc12 , what is its reported pIC50?
Result: 5.03

Query: May I ask what pIC50 has been recorded for Clc1ccc2c(-n3cc(CNCc4cn(-c5ccnc6cc(Cl)ccc56)nn4)nn3)ccnc2c1 ?
Result: 4.14

Query: Sample CN(CCNCc1cn(Cc2ccccc2)nn1)CCNc1ccnc2cc(Cl)ccc12 — what was its pIC50?
Result: 4.80

* * *

assay: Antiproliferative activity against human H460 cells after 72 hrs by SRB method; type: functional, cell-based; details: NCI-H460, 72 h
Entries whose IC50 is below 20 µM take Met; entries at or above 20 µM take Not met.

Solved entries:
{"compound": "CN(CCNCc1cn(Cc2ccc(Cl)cc2)nn1)CCNc1ccnc2cc(Cl)ccc12", "assigned class": "Met"}
{"compound": "CN(CCNc1ccnc2cc(Cl)ccc12)Cc1cn(-c2ccnc3cc(Cl)ccc23)nn1", "assigned class": "Not met"}
{"compound": "CN(CCNCc1cn(-c2ccc(Br)cc2)nn1)CCNc1ccnc2cc(Cl)ccc12", "assigned class": "Met"}
{"compound": "Clc1ccc2c(NCCNCc3cn(-c4ccnc5cc(Cl)ccc45)nn3)ccnc2c1", "assigned class": "Not met"}
{"compound": "CN(CCNCc1cn(CC(=O)Nc2cccc3ccc(O)cc23)nn1)CCNc1ccnc2cc(Cl)ccc12", "assigned class": "Not met"}
{"compound": "CN(CCNCc1cn(CCc2ccccc2)nn1)CCNc1ccnc2cc(Cl)ccc12", "assigned class": "Not met"}
{"compound": "CN(CCNCc1cn(-c2cccc(Cl)c2)nn1)CCNc1ccnc2cc(Cl)ccc12", "assigned class": "Met"}
{"compound": "CN(CCNCc1cn(-c2ccccc2)nn1)CCNc1ccnc2cc(Cl)ccc12", "assigned class": "Not met"}

Query: Decide: IC50 of CN(CCNCc1cn(CC(=O)O)nn1)CCNc1ccnc2cc(Cl)ccc12 strictly below 20 µM?
Result: Not met

Query: Consider the compound CN(CCNCc1cn(-c2ccc(Cl)cc2)nn1)CCNc1ccnc2cc(Cl)ccc12 . Is its IC50 strictly less than 20 µM?
Result: Met

Query: Does this compound meet the criterion IC50 < 20 µM? CN(CCNCc1cn(Cc2nc3ccccc3[nH]2)nn1)CCNc1ccnc2cc(Cl)ccc12
Result: Not met

Query: Field: below-cutoff. Rule: recorded IC50 strictly less than 20 µM. Subject: CN(CCNCc1cn(Cc2ccc(Br)cc2)nn1)CCNc1ccnc2cc(Cl)ccc12
Result: Met

Query: Threshold test, IC50 < 20 µM: C#CCNCCN(C)CCNc1ccnc2cc(Cl)ccc12
Result: Not met
